Test system: T. brucei bloodstream forms
Assay: microbe, parasite or virus in culture
Details: read-out: Mean EC50 ± SD, WT; absence of cation, FeCl2 experiment
Description: The clonal Leishmania donovani cell line LdBOB (derived from MHOM/SD/62/1S-CL2D) was grown as promastigotes at 28°C, as described previously ([53]). Bloodstream-form T. brucei MiTat 1.2 clone 221a and its derived subline, 2T1, were cultured at 37°C in the presence of 5% CO2 in HMI9-T medium, as described previously ([54]). […] In the first instance, the maximum tolerated concentrations of ZnCl2, CaCl2, CuCl2, MgCl2, MnCl2, and FeCl2 were determined for each cell type. […]
measured_quantity: EC50 (nM)

> print(dat)
                      smiles.representation  measured.quantity  unit.name  endpoint.result
1  Cc1nnc(-c2nc(NCc3ccc(Cl)cc3)c3cccnc3c2O)[nH]1               EC50         nM              200
